# Method: TTR transcription activators in neuroblastoma reporter cells, primary screen, cell-based, luminescence, SH-SY5Y, TTR promoter Gaussia luciferase (AID 1117267);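 further: cells exposed to compounds for one day before reading; 0% = median of all test compound wells on the plate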
# Condition: at 16.7 µM, stronger effect = higher value, 100% = recombinant luciferase protein wells
Hit rate of the full screen: of about 92,000 compounds, about 1,200 (1.3%) were called active. Only a selection was taken, and actives are over-represented in it overall.
Recorded Metric: activation (%)
The answer is to be given in %; state only the numeric part.

COc1ccc2c(c1)O/C(=C\c1ccccc1O)C2=O    -0.14
O=C(NCc1ccccc1)C(c1cccnc1)N(C(=O)c1csnn1)c1ccc(F)cc1 (configuration not stated)    4.37
Cc1cccc(OCCCC(=O)Nc2ccc(S(=O)(=O)N3CCCC3)cc2)c1    -3.27
Cc1c(NS(=O)(=O)c2ccc(NC3CCCC3)c([N+](=O)[O-])c2)c(=O)n(-c2ccccc2)n1C    12.5
COc1cc(NS(=O)(=O)c2ccc(NC(=O)c3ccc([N+](=O)[O-])cc3)cc2)ncn1    -0.02
Cc1cccc(C)c1NC(=O)CN1C(=O)C(C)Oc2ccccc21 (configuration not stated)    15.3
C=CCN(Cc1nc(-c2cc(OC)c3c(c2)OCO3)oc1C)C1CCS(=O)(=O)C1 (configuration not stated)    -0.47
C#CCOCCOCCOCCNc1nc(N2CCOCC2)nc(N2CCN(C(=O)[C@H](Cc3ccc(O)cc3)n3cc(CCO)nn3)CC2)n1    -0.17

Alright, here's another compound for you.
Any idea what its activation is? The compound is Cc1c(C#N)c(NC(=O)c2ccccc2)n(Cc2ccccc2)c1C
10.7
